Data provenance is patent US12344597B2.

Molecular target: human LPA1 receptor (Homo sapiens (Human))
Assay: Beta-arrestin recruitment assay to determine IC50 values for human LPAR1
Type: cell-based
Settings: antagonist mode, Tango EDG2-bla U2OS cells, LPA 18:1 500 nM final
measure: IC50 (nM)

INSERT INTO measurements (molecule, studytarget, measure, resultnumber) VALUES
  ('Cc1ccc(NC(=O)C2(c3ccccc3C(C)C)CN(C(=O)CCc3cc(O)no3)C2)c(OC(F)F)n1 [Ex 12-29]', 'human LPA1 receptor (Homo sapiens (Human))', 'IC50', 32),
  ('Cc1ccc(NC(=O)C2(c3ccccc3C(C)C)CN(CCNC(=O)CO)C2)c(OC(F)F)n1 [Ex 11-87]', 'human LPA1 receptor (Homo sapiens (Human))', 'IC50', 26),
  ('COC(=O)C1(COC(=O)N2CC(C(=O)Nc3ccc(C)nc3OC(F)F)(c3ccccc3C(C)C)C2)COC1 [Ex 14-13]', 'human LPA1 receptor (Homo sapiens (Human))', 'IC50', 29);

(P) Cc1ccc(NC(=O)C2(c3ccccc3C(C)C)CN(S(=O)(=O)CC(C)(C)C(=O)O)C2)c(OC(F)F)n1 [Ex 13-12]
(Q) Cc1ccc(C2(C(=O)Nc3ccc(C)nc3OC(F)F)CN(C(=O)CC(C)(C)C(=O)O)C2)c(C(C)C)c1 [Ex 39-3]
[ask] Which numeric IC50 is bigger, that of P or that of Q ? Field: selected label. Fill in the label of the entry you choose.
[reply] Q
(Q: 40 nM, P: 4 nM)

(I) Cc1ccc(NC(=O)C2(c3ccccc3C(C)C)CN(C(=O)C3C[C@H](O)CN3)C2)c(OC(F)F)n1 (stereo partly drawn) [Ex 12-41]
(II) CC(=O)N(O)CCC(=O)N1CC(C(=O)Nc2ccc(C)nc2OC(F)F)(c2ccccc2C(C)C)C1 [Ex 12-132]
(III) Cc1ccc(NC(=O)C2(c3ccccc3C(C)C)CN(C(=O)CN(C)S(N)(=O)=O)C2)c(OC(F)F)n1 [Ex 12-8]
[ask] Ranking field: IC50; order: falling. Submit the labels in the order that the ranking request calls for.
[reply] I, II, III
(I: 69 nM, II: 35 nM, III: 10 nM)

---

Target: human LPA1 receptor (Homo sapiens (Human), UniProt Q92633)
Sequence (Q92633 whole entry): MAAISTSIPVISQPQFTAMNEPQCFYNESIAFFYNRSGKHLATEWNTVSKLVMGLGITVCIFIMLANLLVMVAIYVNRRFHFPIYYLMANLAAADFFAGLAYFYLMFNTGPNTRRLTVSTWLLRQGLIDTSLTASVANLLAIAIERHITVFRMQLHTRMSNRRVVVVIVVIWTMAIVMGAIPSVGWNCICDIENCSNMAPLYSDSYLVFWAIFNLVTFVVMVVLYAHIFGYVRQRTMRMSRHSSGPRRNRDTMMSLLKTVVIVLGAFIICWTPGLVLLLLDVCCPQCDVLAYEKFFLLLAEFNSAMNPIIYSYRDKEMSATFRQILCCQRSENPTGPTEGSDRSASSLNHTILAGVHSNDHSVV
Assay: Beta-arrestin recruitment assay to determine IC50 values for human LPAR1
Details: antagonist mode, Tango EDG2-bla U2OS cells, LPA 18:1 500 nM final
measure: IC50 (µM)

For orientation, consider the following solved cases.
INSERT INTO measurements (molecule, measure, resultnumber) VALUES
  ('Cc1ccc(NC(=O)C2(c3c(C)cccc3C(C)C)CN(C(=O)CC(C)(C)C(=O)O)C2)c(OC(F)F)n1', 'IC50', 0.051),
  ('COCCN(CC(=O)N1CCC(C(=O)Nc2ccc(C)nc2OC(F)F)(c2ccccc2C(C)C)CC1)C(=O)OC(C)(C)C', 'IC50', 0.059),
  ('CCOC(=O)c1coc(N2CC(C(=O)Nc3ccc(C)nc3OC(F)F)(c3ccccc3C(C)C)C2)n1', 'IC50', 0.01),
  ('Cc1ccc(NC(=O)C2(c3ccccc3C3CCCC3)CN(C(=O)CC(C)(C)C(=O)O)C2)c(OC(F)F)n1', 'IC50', 0.005),
  ('Cc1cnc(NC(=O)C2(c3ccccc3C(C)C)CN(C3=NC(=O)CO3)C2)c(OC(F)F)c1', 'IC50', 0.31);

(P) Cc1ccc(NC(=O)C2(c3ccccc3C(C)C)CN(C(=O)CNC[C@@H](C)O)C2)c(OC(F)F)n1
(Q) Cc1ccc(NC(=O)C2(c3ccccc3C(C)C)CN(C(=O)C3COCCN3)C2)c(OC(F)F)n1 (stereo not shown)
[ask] Which has the higher IC50, P or Q ? Use the label to indicate which entry you chose.
[reply] Q

---

Biological target: human LPA1 receptor (Homo sapiens (Human), UniProt Q92633)
Experiment: Beta-arrestin recruitment assay to determine IC50 values for human LPAR1
Details: antagonist mode, Tango EDG2-bla U2OS cells, LPA 18:1 500 nM final
pIC50: −log10 of the molar value.
measure: pIC50

Solved cases below.
INSERT INTO results (molecule, measure, resultnumber) VALUES
  ('Cc1ccc(NC(=O)C2(c3ccccc3C(C)C)CN(C(=O)CN3CCC(C(=O)O)CC3)C2)c(OC(F)F)n1 [Ex 48]', 'pIC50', 6.99),
  ('Cc1ccc(NC(=O)C2(c3ccccc3C(C)C)CN(C(=O)CC3(C(=O)O)CCN(C)CC3)C2)c(OC(F)F)n1 [Ex 12-124]', 'pIC50', 7.25),
  ('Cc1ccc(NC(=O)C2(c3ccccc3C(C)C)CN(C(=O)[C@@H]3CCC[C@H](C(=O)O)C3)C2)c(OC(F)F)n1 [Ex 51]', 'pIC50', 7.10),
  ('Cc1ccc(NC(=O)C2(c3ccccc3C(C)C)CN(C(=O)[C@H](C)N)C2)c(OC(F)F)n1 [Ex 12-33]', 'pIC50', 8.00),
  ('CCOC(=O)CCN1CC(C(=O)Nc2ccc(C)nc2OC(F)F)(c2ccccc2C(C)C)C1 [Ex 11-13]', 'pIC50', 7.80);

(P) Cc1ccc(NC(=O)C2(c3ccccc3C(C)C)CN(S(=O)(=O)CC3(C(=O)O)COC3)C2)c(OC(F)F)n1 [Ex 13-16]
(Q) COC(=O)C1(CCCN2CC(C(=O)Nc3ccc(C)nc3OC(F)F)(c3ccccc3C(C)C)C2)CC1 [Ex 11-70]
[ask] Looking only at measured pIC50, which entry is lower, P or Q ? Answer with the label corresponding to your selection.
[reply] Q
(Q: 7.16, P: 7.80)

---

Biological target: human LPA1 receptor (Homo sapiens (Human))
Assay: Beta-arrestin recruitment assay to determine IC50 values for human LPAR1
Conditions: antagonist mode, Tango EDG2-bla U2OS cells, LPA 18:1 500 nM final
measure: IC50 (nM)

As a guide, the following entries are already answered.
INSERT INTO results (compound, studytarget, resultnumber) VALUES
  ('Cc1ccc(NC(=O)C2(c3ccccc3C(C)C)CN(C(=O)C[C@H](C)C(=O)O)C2)c(OC(F)F)n1 [Ex 12-79]', 'human LPA1 receptor (Homo sapiens (Human))', 15),
  ('CC(C)c1ccccc1C1(C(=O)Nc2cc(F)cnc2OC(F)F)CN(S(N)(=O)=O)C1 [Ex 15-15]', 'human LPA1 receptor (Homo sapiens (Human))', 10),
  ('COC(=O)c1cccc(CN2CC(C(=O)Nc3ccc(C)nc3OC(F)F)(c3ccccc3C(C)C)C2)n1 [Ex 11-45]', 'human LPA1 receptor (Homo sapiens (Human))', 64);

(P) COc1cc(Cl)cnc1NC(=O)C1(c2ccccc2C(C)C)CN(S(N)(=O)=O)C1 [Ex 81-1]
(Q) COC(=O)c1ccc(CN2CC(C(=O)Nc3ccc(C)nc3OC(F)F)(c3ccccc3C(C)C)C2)[nH]1 [Ex 11-43]
[ask] Between P and Q , whose recorded IC50 is greater? Pick one and reply with its label.
[reply] Q
(Q: 310 nM, P: 15 nM)

---

Molecular target: human LPA1 receptor (Homo sapiens (Human))
Test: Beta-arrestin recruitment assay to determine IC50 values for human LPAR1
Conditions: antagonist mode, Tango EDG2-bla U2OS cells, LPA 18:1 500 nM final
measure: IC50 (nM)

Example cases with answers are listed next.
INSERT INTO results (smilestext, resultnumber) VALUES
  ('CC(C)c1ccccc1C1(C(=O)Nc2ncc(Cl)cc2OC(F)F)CN(C(=O)NC2CC2)C1', 3),
  ('CCOC(=O)CC(=O)N1CCC(C(=O)Nc2ccc(C)nc2OC(F)F)(c2ccccc2C(C)C)CC1', 3),
  ('COC(=O)[C@H](C)NC(=O)N1CC(C(=O)Nc2ccc(C)nc2OC(F)F)(c2ccccc2C(C)C)C1', 4),
  ('Cc1ccc(C(C)C)c(C2(C(=O)Nc3ccc(C)nc3OC(F)F)CN(C(=O)CC(C)(C)C(=O)O)C2)c1', 15),
  ('COC(=O)C(C)(C)COC(=O)N1CC(C(=O)Nc2ccc(C)nc2OC(F)F)(c2ccccc2C(C)C)C1', 42),
  ('CC(C)c1ccccc1C1(C(=O)Nc2cccnc2OC(F)F)CN(c2ncncc2F)C1', 10);

(P) Cc1ccc(NC(=O)C2(c3ccccc3C3CCOCC3)CN(c3nc(C(=O)O)co3)C2)c(OC(F)F)n1
(Q) Cc1ccc(NC(=O)C2(c3ccccc3C(C)C)CN(C(=O)CNCC3(C(=O)O)CC3)C2)c(OC(F)F)n1
(R) Cc1ccc(NC(=O)C2(c3ccccc3C(C)C)CCN(C(=O)NCCO)CC2)c(OC(F)F)n1
(S) Cc1ccc(NC(=O)C2(c3ccccc3C(C)C)CN(CCCC(C)(C)N)C2)c(OC(F)F)n1
(T) Cc1ccc(NC(=O)C2(c3ccccc3C(C)C)CN(c3ncc(C#N)cn3)C2)c(OC(F)F)n1
[ask] Order the records, beginning with the lowest IC50 and ending with the highest. Please respond with the labels ordered as the question requires.
[reply] T, R, S, Q, P

(A) Cc1ccc(C(C)C)c(C2(C(=O)Nc3ccc(C)nc3OC(F)F)CNC2)c1
(B) COC(=O)CCC(=O)N1CC(C(=O)Nc2ccc(Cl)nc2OC)(c2ccccc2C(C)C)C1
[ask] Parameter check: reported IC50 is higher for which label, A or B ? Your answer should be the label of the entry you select.
[reply] B
